Origin of measurements: BindingDB's records for doi:10.1111/cbdd.12793

# Assay Target: Tyrosine--tRNA ligase (Staphylococcus aureus (strain MSSA476))
# Sequence (Q6G8J9 whole entry): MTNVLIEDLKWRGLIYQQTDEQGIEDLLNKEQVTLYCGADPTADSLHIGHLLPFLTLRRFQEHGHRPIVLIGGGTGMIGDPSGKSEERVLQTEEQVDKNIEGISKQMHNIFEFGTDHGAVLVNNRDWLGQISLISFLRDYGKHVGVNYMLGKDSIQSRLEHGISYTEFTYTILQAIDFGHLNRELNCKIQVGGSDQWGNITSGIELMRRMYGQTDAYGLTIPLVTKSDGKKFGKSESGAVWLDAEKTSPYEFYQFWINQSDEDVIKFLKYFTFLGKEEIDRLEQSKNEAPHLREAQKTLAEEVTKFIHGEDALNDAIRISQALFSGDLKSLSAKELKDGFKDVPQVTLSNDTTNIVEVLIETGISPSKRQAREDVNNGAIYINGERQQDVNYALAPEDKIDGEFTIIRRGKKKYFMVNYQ
# Measurement Protocol: In vitro Enzyme Inhibition Assay
# Reported Conditions: pH 7.9
# Experimental: The assays were conducted at 37 °C in a mixture containing 100 mM Tris/Cl pH 7.9, 50 mM KCl, 16 mM MgCl2, 5 mM ATP, 3 mM DTT, 4 mg/ml E. coli MRE600 tRNA (Roche) and 10 μM L-tyrosine (0.3 μM L-[ring-3,5-3H] tyrosine (PerkinElmer, Specific activity: 1.48-2.22 TBq/mmol), 10 μM carrier). Above all, TyrRS (0.2 nM) was pre-incubated with kinds of concentrations inhibitor for 10 min (RT) followed by the addition of pre-warmed mixture and moved them together to 37 °C. […]
Below, each entry is listed with its recorded log10 IC50.
Readout Label: log10 IC50 (log10 of the value in µM)

Item Smiles	log10 IC50
Cc1ncc([N+](=O)[O-])n1CCOC(=O)c1cc(-c2ccc(F)cc2)n(-c2ccc(Cl)cc2)n1	1.81
COc1ccc(-c2cc(C(=O)OCCn3c([N+](=O)[O-])cnc3C)nn2-c2ccccc2)cc1	-0.04
Cc1ncc([N+](=O)[O-])n1CCOC(=O)c1cc(-c2ccccc2F)n(-c2ccccc2)n1	1.98
COc1ccc(-c2cc(C(=O)OCCn3c([N+](=O)[O-])cnc3C)nn2-c2ccc(Cl)cc2)cc1	0.22
COc1ccc(-c2cc(C(=O)OCCn3c([N+](=O)[O-])cnc3C)nn2-c2ccc(C)cc2)cc1	1.03
Cc1ncc([N+](=O)[O-])n1CCOC(=O)c1cc(-c2ccccc2F)n(-c2ccc(Cl)cc2)n1	1.88
Cc1ccccc1-c1cc(C(=O)OCCn2c([N+](=O)[O-])cnc2C)nn1-c1ccccc1	0.66
Cc1ccc(-c2cc(C(=O)OCCn3c([N+](=O)[O-])cnc3C)nn2-c2ccc(C)cc2)cc1	1.50
Cc1ccc(-c2cc(C(=O)OCCn3c([N+](=O)[O-])cnc3C)nn2-c2ccc(Cl)cc2)cc1	1.26
Cc1ncc([N+](=O)[O-])n1CCOC(=O)c1cc(-c2ccc(F)cc2)n(-c2ccccc2)n1	1.85
Cc1ncc([N+](=O)[O-])n1CCOC(=O)c1cc(-c2ccccc2)n(-c2ccc(Cl)cc2)n1	1.22
Cc1ncc([N+](=O)[O-])n1CCOC(=O)c1cc(-c2cccc(F)c2)n(-c2ccccc2)n1	1.92
Cc1ncc([N+](=O)[O-])n1CCOC(=O)c1cc(-c2ccc(Cl)cc2)n(-c2ccccc2)n1	1.33
Cc1ncc([N+](=O)[O-])n1CCOC(=O)c1cc(-c2ccc(I)cc2)n(-c2ccc(Cl)cc2)n1	1.12
Cc1ccc(-n2nc(C(=O)OCCn3c([N+](=O)[O-])cnc3C)cc2-c2ccc(I)cc2)cc1	1.61
Cc1cccc(-c2cc(C(=O)OCCn3c([N+](=O)[O-])cnc3C)nn2-c2ccc(Cl)cc2)c1	1.47
Cc1ccc(-n2nc(C(=O)OCCn3c([N+](=O)[O-])cnc3C)cc2-c2ccc(F)cc2)cc1	1.75
Cc1ccc(-c2cc(C(=O)OCCn3c([N+](=O)[O-])cnc3C)nn2-c2ccccc2)cc1	1.78
Cc1ncc([N+](=O)[O-])n1CCOC(=O)c1cc(-c2cccc(F)c2)n(-c2ccc(Cl)cc2)n1	1.78
Cc1ccc(-n2nc(C(=O)OCCn3c([N+](=O)[O-])cnc3C)cc2-c2ccc(Cl)cc2)cc1	1.68
